Just for reference, patent US9409952B2 is where these values come from.

test: PAMPA (parallel artificial membrane permeability assay); format: in vitro ADME; conditions: PAMPA; membrane permeation rate (Pe); 50 mM MOPSO buffer pH 6.5 with 5.0% glycocholic acid, 37° C., 18 hours; read-out: iPAMPA Pe
Starred links: 1 amine or outer side, 2 acyl side, 3 side chain; linkers in the order of their positions; H or OH if unused. Positions of bridges follow the written chain, without caps; N, C: chain ends. Non-standard residues stand in square brackets, D forms with d. Residues, ends and D or L forms follow the SMILES beside them. *: point of attachment. NMeF = CN[C@@H](Cc1ccccc1)C(=O)O; NMeGABA = CN(CCCC(=O)[*:2])[*:1]; NMeβAla = CN(CCC(=O)[*:2])[*:1]; NMeL = CN[C@@H](CC(C)C)C(=O)O; NMeV = CN[C@H](C(=O)O)C(C)C; NMeA = CN[C@@H](C)C(=O)O; Piperidide = C1CCN(*)CC1; Sar = CNCC(=O)O; tBu = CC(C)(C)*
Endpoint: Papp at 18 hours, 50 µM (×10⁻⁶ cm/s)
Give just the number in ×10⁻⁶ cm/s; leave the unit off.

Consider the worked cases shown below.
| Compound | Papp at 18 hours, 50 µM (×10⁻⁶ cm/s) |
| --- | --- |
| CC[C@H](C)[C@@H]1NC(=O)[C@H](Cc2ccccc2)N(C)C(=O)CN(C)C(=O)[C@H]([C@@H](C)O)NC(=O)[C@H](CC(C)C)NC(=O)[C@H](CC(C)C)N(C)C(=O)[C@H](C)N(C)C(=O)CCCN(C)C(=O)C[C@@H](C(=O)N2CCCCC2)NC(=O)[C@H](Cc2ccccc2)N(C)C(=O)[C@H](C(C)C)N(C)C1=O [DP-477] ([NMeGABA][NMeA][NMeL]LT[Sar][NMeF]I[NMeV][NMeF]D-Piperidide; lactam N-11) | 29 |
| CC(C)C[C@H]1C(=O)N[C@H](C(=O)N(C)[C@@H](Cc2ccccc2)C(=O)N[C@@H](C)C(=O)N2CCCCC2)CC(=O)N(C)[C@@H](C)C(=O)N[C@@H]([C@@H](C)O)C(=O)N(C)[C@@H](Cc2ccccc2)C(=O)N(C)[C@@H](CC(C)C)C(=O)N(C)[C@@H](CC(C)C)C(=O)N[C@@H](C)C(=O)N(C)[C@@H](Cc2ccccc2)C(=O)N(C)[C@@H](CC(C)C)C(=O)N1C [DP-192] ([NMeA]T[NMeF][NMeL][NMeL]A[NMeF][NMeL][NMeL]D[NMeF]A-Piperidide; lactam N-10) | 0.64 |
| CC(C)C[C@H]1C(=O)N(C)[C@@H](CC(C)C)C(=O)N(C)[C@@H](CC(C)C)C(=O)N[C@H](C(=O)N2CCCCC2)CC(=O)N(C)CCC(=O)N[C@@H]([C@@H](C)O)C(=O)N(C)[C@@H](C)C(=O)N(C)[C@@H](Cc2ccccc2)C(=O)N(C)[C@@H](Cc2ccccc2)C(=O)NCC(=O)N1C [DP-174] ([NMeβAla]T[NMeA][NMeF][NMeF]G[NMeL][NMeL][NMeL]D-Piperidide; lactam N-10) | 22 |
| CC(C)C[C@@H]1NC(=O)[C@H](CC(C)C)N(C)C(=O)[C@H](C)NC(=O)[C@H](C(C)C)N(C)C(=O)[C@H](Cc2ccccc2)NC(=O)CN(C)C(=O)[C@H]([C@@H](C)O)NC(=O)[C@H](C)N(C)C(=O)[C@H](CC(C)C)N(C)C(=O)[C@@H](C)NC(=O)C[C@@H](C(=O)N(C)[C@@H](Cc2ccccc2)C(=O)N[C@@H](C)C(=O)N2CCCCC2)NC1=O [DP-179] ([dA][NMeL][NMeA]T[Sar]F[NMeV]A[NMeL]LD[NMeF]A-Piperidide; lactam N-11) | 17 |

Turning to the following compound.
Problem: Entry CC(C)C[C@H]1C(=O)N[C@H](C(=O)N2CCCCC2)CC(=O)N(C)CCC(=O)N[C@@H]([C@@H](C)O)C(=O)N(C)CC(=O)N[C@@H](COC(C)(C)C)C(=O)N(C)[C@@H](Cc2ccccc2)C(=O)N1C [DP-750] ([NMeβAla]T[Sar]S(tBu)[NMeF][NMeL]D-Piperidide; lactam N-7) : reported Papp at 18 hours, 50 µM = ?
Result: 13
